# Lookup of reported Population Normal (%) keyed by entry
# Tested on: Fibroblast
# measurementNotes: Multiplex assay against human fibroblast
# Format: toxicity, cell-based
# setupConditions: 12 h, 10 µM, compound concentration 10 uM, replicate 1
measuredProperty: Population Normal (%)

compound | measureUnit | observedResult
N#Cc1c(Oc2cccc(OS(=O)(=O)CCCC(F)(F)F)c2)cccc1C(F)(F)F | % | 93
Cl.N=C(N)NC(=O)Cc1c(Cl)cccc1Cl [GUANFACINE HYDROCHLORIDE] | % | 99
Cc1sc2c(c1C)C(c1ccc(Cl)cc1)=N[C@@H](CC(=O)NCCCCCCCCNC(=O)COc1cccc3c1C(=O)N(C1CCC(=O)NC1=O)C3=O)c1nnc(C)n1-2 (stereo not given in full) | % | 88
CCCCC1=NC2(CCCC2)C(=O)N1Cc1ccc(-c2ccccc2-c2nnn[nH]2)cc1 | % | 96
CC(=O)Nc1cccc2c1c(Sc1ccc(Cl)cc1)c(C)n2CC(=O)O | % | 96
O=C(CCCc1ccccc1)Nc1nc2ccccc2c(=O)s1 | % | 97
COC[C@@H](c1ccc(C(F)(F)F)cc1)N1CCN(C2(C)CCN(C(=O)c3c(C)ncnc3C)CC2)C[C@@H]1C.O=C(O)/C=C\C(=O)O [VICRIVIROC MALEATE] | % | 82
COc1cccc2c1c(NS(=O)(=O)c1ccc(Cl)s1)nn2Cc1cccc(CNC(=O)C(C)(C)O)c1 | % | 97
CCCOc1ccc2[nH]cc(C3=CCNCC3)c2n1.Cl | % | 95
O=C(NCCN1CCC(n2c(=O)[nH]c3cc(Cl)ccc32)CC1)c1ccc(F)cc1 [HALOPEMIDE] | % | 96

Cited source for all entries: ChEMBL document CHEMBL5058577
